Values from patent US20250270173A1

- targetOfAssay: 5-HT2A receptor (Homo sapiens (Human), UniProt P28223)
- test: FLIPR Ca2+ flux functional assay at 5-HT2A (HEK293)
- conditionDescription: Ca2+ flux, HEK293, at max concentration
measuredMetric: 5-HT2A % Act @ Max Conc. (%)
Answers are plain numbers, in %.

* CCc1cc(OC)c(CC(C)N)nc1OC (stereo not shown) | 98.11
* COc1cc(C)c(OC)nc1CC(C)N (stereo not shown) | 104.25
* COc1cc(C2CC2)c(OC)nc1CCN | 81.58
* CCCCCc1nc(OC)c(CC(N)CC)cc1OC (stereo not shown) | 62.2
* CCCCCc1cc(OC)c(CCN)nc1OC | 82.88

For each of the compounds below, note its 5-HT2A % Act @ Max Conc..
1. CCc1cc(OC)c(CCN)cc1OC [Compound 2C-E, 2C-E, reference compound]
2. CCCCCc1cc(OC)c(CC(C)N)cc1OC (stereo not shown) [Compound 41, reference compound]
3. CCCc1cc(OC)c(CCN)nc1OC

1. 105
2. 100.2
3. 88.19

For each of the compounds below, note its 5-HT2A % Act @ Max Conc..
1. COc1ccccc1CNCCc1nc(OC)c(Br)cc1OC
2. CCCCCc1cc(OC)c(CCN)cc1OC [Compound 43, reference compound]

1. 93.57
2. 105.2

----------
- targetOfAssay: UniProt P28223
- test: FLIPR Ca2+ flux functional assay at 5-HT2A (HEK293)
- conditionDescription: Ca2+ flux, HEK293, at max concentration
measuredMetric: 5-HT2A % Act @ Max Conc.
Give the figure together with its unit, number first.

Consider the following illustrative entries.
- CCc1cc(OC)c(CCN)nc1OC [Compound 19]: 96.03%
- COc1cc(CCN)cc(OC)c1OC [Mescaline, reference compound]: 102%

For each of the compounds below, note its 5-HT2A % Act @ Max Conc..
1. COc1cc(C(F)(F)F)c(OC)cc1CCN [Compound 2C-TFM, 2C-TFM, reference compound]
2. CCCCCCc1cc(OC)c(CCN)nc1OC [Compound 29]
3. COc1cc(Cl)c(OC)nc1CCN [Compound 16]
4. CCSc1cc(OC)c(CC(C)N)nc1OC (stereo not shown) [Compound 23]
5. CCC(N)Cc1nc(OC)c(C2CC2)cc1OC (stereo not shown) [Compound 28]

1. 81.5%
2. 69.91%
3. 97.33%
4. 106.2%
5. 71.49%

For each of the compounds below, note its 5-HT2A % Act @ Max Conc..
1. CCCCCCc1cc(OC)c(CC(C)N)nc1OC (stereo not shown) [Compound 38]
2. CCCCCCc1cc(OC)c(CCN)cc1OC [Compound 44, reference compound]
3. CCC(N)Cc1nc(OC)c(C)cc1OC (stereo not shown) [Compound 2]

1. 83.97%
2. 90.51%
3. 69.78%

----------
- targetOfAssay: 5-HT2A receptor (Homo sapiens (Human))
- test: 5-HT2A receptor radioligand binding with [3H]ketanserin
measuredMetric: Ki
Give the figure together with its unit, number first.

Suppose we examine the compound `COc1cc(CCCCC(F)(F)F)c(OC)nc1CCN` ; what Ki value has been reported?
13.6 nM

----------
- targetOfAssay: 5-HT2B receptor (Homo sapiens (Human))
- Sequence (P41595 whole entry, looked up): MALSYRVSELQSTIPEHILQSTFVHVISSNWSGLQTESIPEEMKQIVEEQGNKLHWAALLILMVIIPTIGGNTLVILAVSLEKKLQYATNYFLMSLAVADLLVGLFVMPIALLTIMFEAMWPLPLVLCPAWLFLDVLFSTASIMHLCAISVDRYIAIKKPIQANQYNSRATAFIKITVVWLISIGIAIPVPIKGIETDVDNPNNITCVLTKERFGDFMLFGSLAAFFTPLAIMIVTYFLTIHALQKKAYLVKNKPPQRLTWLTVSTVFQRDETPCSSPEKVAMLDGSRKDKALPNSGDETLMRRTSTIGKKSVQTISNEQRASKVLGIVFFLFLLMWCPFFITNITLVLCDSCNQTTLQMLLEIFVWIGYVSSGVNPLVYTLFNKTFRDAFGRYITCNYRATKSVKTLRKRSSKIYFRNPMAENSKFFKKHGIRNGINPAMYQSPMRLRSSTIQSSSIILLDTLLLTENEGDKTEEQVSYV
- test: FLIPR Ca2+ flux functional assay at 5-HT2B (HEK293)
- conditionDescription: Ca2+ flux, HEK293, at max concentration
Outcome label depends on 5-HT2B % Act @ Max Conc. relative to 40%: at/above gives Condition met, below gives Condition not met.

# bool: 5-HT2B % Act @ Max Conc. of COc1cc(CCN)c(OC)cc1Br [Compound 2C-B, 2C-B, reference compound] >= 40%
Condition met

# bool: 5-HT2B % Act @ Max Conc. of COc1cc(CCN)cc(OC)c1OC [Mescaline, reference compound] >= 40%
Condition met

# bool: 5-HT2B % Act @ Max Conc. of CCCCCc1cc(OC)c(CC(N)CC)cc1OC (centres unmarked) [Compound 10] >= 40%
Condition not met

# bool: 5-HT2B % Act @ Max Conc. of CCCc1cc(OC)c(CCN)nc1OC [Compound 36] >= 40%
Condition not met
